# experimentalTarget: High affinity nerve growth factor receptor (Homo sapiens, UniProt P04629)
# Sequence (P04629 33-796 limits assumed): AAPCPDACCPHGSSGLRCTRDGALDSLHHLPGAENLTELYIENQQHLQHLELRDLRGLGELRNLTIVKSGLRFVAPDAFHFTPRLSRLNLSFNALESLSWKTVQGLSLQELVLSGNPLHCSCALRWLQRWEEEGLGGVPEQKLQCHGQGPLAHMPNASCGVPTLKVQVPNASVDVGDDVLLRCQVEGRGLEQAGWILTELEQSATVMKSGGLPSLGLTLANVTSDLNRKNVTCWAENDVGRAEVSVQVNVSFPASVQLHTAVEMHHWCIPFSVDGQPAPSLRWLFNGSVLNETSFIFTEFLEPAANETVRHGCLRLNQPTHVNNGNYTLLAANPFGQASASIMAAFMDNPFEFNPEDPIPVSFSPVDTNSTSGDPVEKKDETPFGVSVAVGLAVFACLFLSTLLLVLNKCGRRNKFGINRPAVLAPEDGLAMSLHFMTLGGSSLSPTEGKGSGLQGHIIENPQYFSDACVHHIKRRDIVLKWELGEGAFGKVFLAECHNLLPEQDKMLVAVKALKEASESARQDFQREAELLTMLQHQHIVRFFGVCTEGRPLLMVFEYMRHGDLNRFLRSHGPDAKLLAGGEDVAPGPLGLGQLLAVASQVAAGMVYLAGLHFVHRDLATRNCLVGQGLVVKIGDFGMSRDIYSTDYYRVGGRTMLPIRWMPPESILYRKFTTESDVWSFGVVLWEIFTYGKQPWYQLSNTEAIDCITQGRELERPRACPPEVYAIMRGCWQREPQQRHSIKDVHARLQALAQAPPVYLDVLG
# cond: dose 100.0 nM
# Description: Inhibition of TRKA (unknown origin) at 100 nM relative to control
Provide the reported inhibition of each item.
All answers are understood in %, so give the number only.

# query: inhibition of entry COc1cccc(C(C)Nc2nc(-c3cccc(N(C)C)c3)cnc2N)c1 (racemic) 66

Data request, read-out inhibition, for CN(C)c1cccc(-c2cnc(N)c(NCc3cccc(C(F)(F)F)c3)n2)c1 28

What measured inhibition goes with COC(=O)c1cccc(-c2cnc(N)c(NC(C)c3ccccc3)n2)c1 (racemic) ? 55

State the recorded inhibition for this entry: Cc1cccc(CNc2nc(-c3cccc(N(C)C)c3)cnc2N)c1 26

What value of inhibition has been reported for the following compound? COC(=O)c1cccc(CNc2nc(-c3cccc(N(C)C)c3)cnc2N)c1 48

So what does the record say about inhibition for CN(C)c1cccc(-c2cnc(N)c(NC(c3ccccc3)C(C)(C)C)n2)c1 (racemic) ? 58

Could you share which inhibition value was measured for CC(Nc1nc(-c2ccc(NS(C)(=O)=O)cc2)cnc1N)c1ccccc1 (racemic) ? 38

Reported inhibition for Cc1ccc(C(C)Nc2nc(-c3cccc(N(C)C)c3)cnc2N)cc1 (racemic) : what is it? 11

Quick one: inhibition for CN(C)c1cccc(-c2cnc(N)c(NCc3cccc(-c4ccccc4)c3)n2)c1 ? 42

Entry Cc1ccc(CNc2nc(-c3cccc(N(C)C)c3)cnc2N)cc1C has what inhibition? 35

###

# experimentalTarget: High affinity nerve growth factor receptor (Homo sapiens, UniProt P04629)
# cond: dose 100.0 nM
# Description: Inhibition of TRKA (unknown origin) at 100 nM ScanElect kinase assay relative to control
True means recorded inhibition is 10% or above; False means it is below 10%.

Does inhibition meet or surpass 10% for COC(=O)c1ccc(-c2cnc(N)c(NC(C)c3ccccc3)n2)cc1 (racemic) ? True

Reported inhibition at or above 10%? CC(Nc1nc(-c2cccc(N(C)C)c2)cnc1N)c1cccc(C(F)(F)F)c1 (racemic) True

Does inhibition meet or surpass 10% for CN(C)c1cccc(-c2cnc(N)c(NCc3cccnc3)n2)c1 ? True

# bool: inhibition of Cc1cc(C)cc(-c2cnc(N)c(NC(C)c3ccccc3)n2)c1 (racemic) >= 10% False

Quick check, inhibition >= 10%? COc1cccc(C(C)Nc2nc(-c3cccc(N(C)C)c3)cnc2N)c1 (racemic) True

Check the entry COC(=O)c1cccc(-c2cnc(N)c(NC(C)c3ccccc3)n2)c1 (racemic) : does inhibition equal or exceed 10%? True

I'd appreciate it if you could say whether CC(Nc1nc(-c2cc(Cl)cc(Cl)c2)cnc1N)c1ccccc1 (racemic) has inhibition at least equal to 10%. False

Is the recorded value of inhibition equal to or greater than 10% for this compound? CN(C)c1cccc(-c2cnc(N)c(NCc3cccc(-c4ccccc4)c3)n2)c1 False

Evaluate CC(Nc1nc(-c2ccccc2)cnc1N)c1ccccc1 (racemic) : inhibition at minimum 10%? False

Is inhibition at least 10%? Consider COc1cccc(OC)c1-c1cnc(N)c(NC(C)c2ccccc2)n1 (racemic) False

Could you please find out whether COC(=O)c1cccc(CNc2nc(-c3cccc(N(C)C)c3)cnc2N)c1 has inhibition that meets 10% or exceeds it? False

Reported inhibition reaches at least 10% for CC(Nc1nc(-c2cccc(O)c2)cnc1N)c1ccccc1 (racemic) ? False

Does the compound CC(Nc1nc(-c2ccc3c(c2)OCO3)cnc1N)c1ccccc1 (racemic) have recorded inhibition that is 10% or more? True

Identify whether the reported inhibition of the following compound is 10% or greater: CC(Nc1nc(-c2ccc(F)cc2)cnc1N)c1ccccc1 (racemic) False

Determine whether measured inhibition meets or exceeds 10% for CC(C)Oc1cccc(-c2cnc(N)c(NC(C)c3ccccc3)n2)c1 (racemic) False

Could you tell me if the measured inhibition of COc1ccc(C(C)Nc2nc(-c3cccc(N(C)C)c3)cnc2N)cc1 (racemic) reaches 10% or more? False

Would you say CN(C)c1cccc(-c2cnc(N)c(NCc3ccccc3)n2)c1 shows inhibition at minimum 10%? True

Determine whether this compound has inhibition no lower than 10%: CC(Nc1nc(-c2ccc(NS(C)(=O)=O)cc2)cnc1N)c1ccccc1 (racemic) True

Could you tell me if the measured inhibition of Cc1ccc(CNc2nc(-c3cccc(N(C)C)c3)cnc2N)cc1C reaches 10% or more? False

Say whether CC(Nc1nc(-c2cccc(F)c2)cnc1N)c1ccccc1 (racemic) shows inhibition of 10% or more. False

Could you verify whether the entry CC(Nc1nc(-c2cccc(C(=O)N(C)C)c2)cnc1N)c1ccccc1 (racemic) shows inhibition of no less than 10%? True

Confirm if inhibition reported for the compound CCC(Nc1nc(-c2cccc(N(C)C)c2)cnc1N)c1ccccc1 (racemic) is 10% or above. True

Entry CC(Nc1nc(-c2ccc(-c3ccccc3)cc2)cnc1N)c1ccccc1 (racemic) : is its inhibition no less than 10%? False

Given CC(Nc1nc(-c2cccc(N(C)C)c2)cnc1N)c1ccc(S(C)(=O)=O)cc1 (racemic) , state whether its inhibition is at least 10%. False

Tell me whether inhibition is at least 10% here: CN(C)c1cccc(-c2cnc(N)c(NCc3cccc(C(F)(F)F)c3)n2)c1 False

Please check the record CN(C)c1cccc(-c2cnc(N)c(NC(c3ccccc3)C(C)(C)C)n2)c1 (racemic) and state if its inhibition is at or above 10%. True

Threshold query (inhibition >= 10%) on Cc1cccc(CNc2nc(-c3cccc(N(C)C)c3)cnc2N)c1 False

Is the recorded value of inhibition equal to or greater than 10% for this compound? CC(Nc1nc(-c2cc(C(F)(F)F)cc(C(F)(F)F)c2)cnc1N)c1ccccc1 (racemic) False

State whether the measured inhibition reaches 10%, counting equality as reaching it, for CC(Nc1nc(-c2cccc([N+](=O)[O-])c2)cnc1N)c1ccccc1 (racemic) True

Can CC(Nc1nc(-c2cccc3ccccc23)cnc1N)c1ccccc1 (racemic) be said to have inhibition at or above 10%? True
